# System: SMN2 CJ mRNA
# Procedure Summary: Gene panel canonical junction qPCR splicing assay, SMN2
# Format: cell-based
# Condition Details: Table 4, read-out: SMN2 IC50 (decrease in CJ mRNA levels)
# Procedure: Compounds described herein were used to modulate RNA transcript abundance in cells. The expression of a target mRNA was measured by detecting the formation of an exon-exon junction in the canonical transcript (CJ). A compound mediated exon-inclusion event was detected by observing an increase in formation of a new junction with an alternative exon (AJ). […] After treatment, the levels of the HTT mRNA targets were determined from each sample of cell lysate by cDNA synthesis followed by qPCR. […]
Where a name gives a salt, the structure may show the parent alone.

- Compound: "Cn1cc2cc(-c3ccc4nc(N5CCC(NC6CC6)C5)ccc4n3)c(O)cc2n1 (stereo not shown)"
  Target Of Assay: "SMN2 CJ mRNA"
  IC50: "< 100 nM"
- Compound: "Cn1cc2cc(-c3ccc4nc(C5CCNCC5)ccc4n3)ncc2n1"
  Target Of Assay: "SMN2 CJ mRNA"
  IC50: "1000 to 10000 nM"
- Compound: "Cc1nc2c(C)c(O)c(-c3ccc4nc(N5CCC(NC6CC6)C5)ccc4n3)cc2o1 (single isomer, unassigned) [Compound 217]"
  Target Of Assay: "SMN2 CJ mRNA"
  IC50: "< 100 nM"
- Compound: "Cn1cc2cc(-c3ccc4nc(N5CC[C@@H](NCC6CC6)C5)ccc4n3)c(O)cc2n1"
  Target Of Assay: "SMN2 CJ mRNA"
  IC50: "< 100 nM"
- Compound: "CCN1CCC(c2ccc3nc(-c4cc5cn(C)nc5cc4O)ccc3n2)CC1"
  Target Of Assay: "SMN2 CJ mRNA"
  IC50: "< 100 nM"
- Compound: "Cn1cc2nc(-c3ccc4nc(C5CCNCC5)ccc4n3)ccc2n1"
  Target Of Assay: "SMN2 CJ mRNA"
  IC50: "100 to 1000 nM"
- Compound: "Cc1c(O)c(-c2ccc3nc(N4CCC(NC(C)(C)C)C4)ccc3n2)cc2cn(C)nc12 (stereo not shown) [Compound 191, hydrochloride]"
  Target Of Assay: "SMN2 CJ mRNA"
  IC50: "> 10000 nM"
- Compound: "Cc1nc2cc(O)c(-c3ccc4nc(N5CC[C@@H](NC(C)C)C5)ccc4n3)cc2o1 (single isomer, unassigned)"
  Target Of Assay: "SMN2 CJ mRNA"
  IC50: "< 100 nM"
- Compound: "Cn1cc2cc(-c3ccc4nc(N5CCC56CCNC6)ccc4n3)c(O)cc2n1 (stereo not shown)"
  Target Of Assay: "SMN2 CJ mRNA"
  IC50: "1000 to 10000 nM"
- Compound: "Cn1cc2cc(-c3ccc4nc(N5CCC56CCCNC6)ccc4n3)c(O)cc2n1 (stereo not shown)"
  Target Of Assay: "SMN2 CJ mRNA"
  IC50: "100 to 1000 nM"
- Compound: "Cc1nc2cc(O)c(-c3ccc4nc(N5CCC(NC6CCC6)C5)ccc4n3)cc2o1 (single isomer, unassigned) [Compound 230]"
  Target Of Assay: "SMN2 CJ mRNA"
  IC50: "< 100 nM"
- Compound: "Cn1cc2cc(-c3ccc4nc(N5CC[C@@H](N[C@H]6C[C@H](F)C6)C5)ccc4n3)c(O)cc2n1"
  Target Of Assay: "SMN2 CJ mRNA"
  IC50: "< 100 nM"
- Compound: "COc1cc2nc(C)oc2cc1-c1ccc2nc(N3CCC(NC(C)(C)C)C3)ccc2n1 (stereo not shown)"
  Target Of Assay: "SMN2 CJ mRNA"
  IC50: "1000 to 10000 nM"

Hello, the source for this data is patent US20240002375A1, in case you need it.
